Here, each record is paired with measured IC50 data.
System name: Recombinant human HSD17B13 enzyme (Homo sapiens)
Sequence (Q7Z5P4 20-300): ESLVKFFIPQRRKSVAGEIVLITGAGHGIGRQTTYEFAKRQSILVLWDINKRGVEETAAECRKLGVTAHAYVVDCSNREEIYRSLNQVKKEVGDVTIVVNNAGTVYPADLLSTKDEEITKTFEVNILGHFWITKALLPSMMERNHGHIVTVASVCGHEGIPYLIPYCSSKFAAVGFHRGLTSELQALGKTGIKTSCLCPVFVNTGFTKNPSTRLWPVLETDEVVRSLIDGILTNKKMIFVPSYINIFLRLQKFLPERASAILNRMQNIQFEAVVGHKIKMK
Protocol description: HSD17b13 NAD(P)H-Glo biochemical assay
Condition parameters: 50 uM estradiol, 1 mM NAD+, NAD(P)H-Glo luminescence; read-out: HSD17β13 IC50
Where a name gives a salt, the structure may show the parent alone.

COC1CCN(c2cc3c(cn2)c(-c2cc(C(F)(F)F)c(F)c(O)c2F)nn3C)C2(CC2)C1 (stereo not drawn) [Compound 9.83]	< 0.1 µM
CN(c1ncc2c(-c3cc(C(F)(F)F)c(F)c(O)c3F)nn(C)c2n1)C1CCOCC1 [Compound 9.39]	< 0.1 µM
C[C@@H]1CN(C(=O)c2ccccc2)CCN1c1ncc2c(-c3cc(C(F)(F)F)c(F)c(O)c3F)nn(C)c2n1 [Compound 18.120]	< 0.1 µM

Sample Cn1nc(-c2cc(C(F)(F)F)c(F)c(O)c2F)c2cnc(N3CCN(C(=O)c4cccnc4)CC3)nc21 [Compound 18.128] ; IC50 observed: 0.1 to 1 µM

IC50 reading for CN(C)CC1CCN(c2ncc3c(-c4cc(C(F)(F)F)c(F)c(O)c4F)nn(C)c3n2)CC1 [Compound 18.34] : 0.1 to 1 µM

Please fill in: IC50 reported for CN1CCC2(CCN(c3ncc4c(-c5cc(C(F)(F)F)c(F)c(O)c5F)nn(C)c4n3)CC2)C1=O [Compound 18.08] = < 0.1 µM

The measured IC50 associated with Cn1nc(-c2cc(C(F)(F)F)c(F)c(O)c2F)c2cnc(N(C3CCC3)C3CCOCC3)cc21 [Compound 9.29] reads < 0.1 µM

Consider Cn1nc(-c2cc(C(F)(F)F)c(F)c(O)c2F)c2cnc(N3CCOC4(CCCC4)C3)nc21 [Compound 18.106] . Its measured IC50 is < 0.1 µM

For this molecule ( Cn1nc(-c2cc(C(F)(F)F)c(F)c(O)c2F)c2cnc(N3CCNC4(CCC4)C3)nc21 [Compound 20, HCl salt] ), measured IC50 is < 0.1 µM

GET /value?item= Cn1nc(-c2cc(C(F)(F)F)c(F)c(O)c2F)c2cnc(NC3CCC3)cc21 [Compound 9.14] &field=IC50 returns < 0.1 µM

Form: molecule = CN(C(=O)c1ccc2oc(-c3cc(C(F)(F)F)c(F)c(O)c3F)nc2c1)C1CCC1 [Compound 1.15] ; IC50 = 0.1 to 1 µM

IC50 for CS(=O)(=O)C1CN(c2cc3nc(-c4cc(O)c(F)c(F)c4)oc3cc2Cl)C1 [Compound 5.01] is 0.1 to 1 µM
